These measurements were taken from ChEMBL document CHEMBL1145498.

- Experimental target: Serine/threonine-protein kinase PLK4 (Homo sapiens) (UniProt O00444)
- Sequence (O00444 whole entry): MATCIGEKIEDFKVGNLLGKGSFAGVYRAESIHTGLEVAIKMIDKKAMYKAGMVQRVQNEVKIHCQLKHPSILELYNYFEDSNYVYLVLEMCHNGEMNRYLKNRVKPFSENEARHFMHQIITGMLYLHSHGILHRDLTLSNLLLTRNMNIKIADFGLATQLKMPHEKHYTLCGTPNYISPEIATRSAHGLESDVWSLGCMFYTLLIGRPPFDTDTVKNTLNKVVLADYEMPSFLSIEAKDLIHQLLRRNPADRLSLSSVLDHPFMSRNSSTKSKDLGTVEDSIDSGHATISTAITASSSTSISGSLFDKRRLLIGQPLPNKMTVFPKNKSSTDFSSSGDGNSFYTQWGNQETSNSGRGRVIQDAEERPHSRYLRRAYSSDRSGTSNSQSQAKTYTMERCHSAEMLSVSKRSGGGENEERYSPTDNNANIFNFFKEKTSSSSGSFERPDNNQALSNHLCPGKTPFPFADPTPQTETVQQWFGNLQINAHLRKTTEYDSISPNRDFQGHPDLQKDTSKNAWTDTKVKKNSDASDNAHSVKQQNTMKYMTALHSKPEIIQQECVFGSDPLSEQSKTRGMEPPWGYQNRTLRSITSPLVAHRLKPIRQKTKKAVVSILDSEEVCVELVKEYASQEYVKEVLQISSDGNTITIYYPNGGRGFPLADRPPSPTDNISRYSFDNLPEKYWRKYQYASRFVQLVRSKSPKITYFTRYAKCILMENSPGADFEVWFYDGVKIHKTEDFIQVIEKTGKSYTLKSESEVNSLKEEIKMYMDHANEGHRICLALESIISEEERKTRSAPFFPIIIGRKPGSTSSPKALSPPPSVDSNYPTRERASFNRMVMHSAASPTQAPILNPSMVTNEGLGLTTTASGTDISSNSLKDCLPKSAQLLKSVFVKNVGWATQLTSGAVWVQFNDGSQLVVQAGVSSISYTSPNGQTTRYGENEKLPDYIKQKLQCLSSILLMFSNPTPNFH
Lab note: compare ΔTm against 1 °C. Equal or greater, write y. Smaller, write n.

O=C1Nc2cc(Br)ccc2/C1=C1/Nc2ccccc2/C1=N\O
y
Cc1cncc2cccc(S(=O)(=O)N3CCCNC[C@@H]3C)c12
y
O=S(=O)(c1cccc2c(Cl)cccc12)N1CCCNCC1
n
CSc1nc(-c2ccc(F)cc2)c(-c2ccnc(NC(C)c3ccccc3)c2)[nH]1 (racemic)
n
COc1cc(O)c2c(c1)oc(=O)c1c3cc(O)c(O)cc3oc21
y
O=C1Cc2c([nH]c3ccc([N+](=O)[O-])cc23)-c2ccccc2N1
y
Cc1ccc(NC2=CC(=O)c3sc(C)nc3C2=O)cc1
n
CCN(CC)CCNC(=O)c1c(C)[nH]c(/C=C2\C(=O)Nc3ccc(F)cc32)c1C
y
CN(C)c1ccc(CC2C(=O)Nc3ccccc32)cc1 (stereo not given)
y

----------
Hi! I'm sharing some ΔTm results obtained with Serine/threonine-protein kinase Nek2 (Homo sapiens) (UniProt P51955).
Sequence (P51955 whole entry): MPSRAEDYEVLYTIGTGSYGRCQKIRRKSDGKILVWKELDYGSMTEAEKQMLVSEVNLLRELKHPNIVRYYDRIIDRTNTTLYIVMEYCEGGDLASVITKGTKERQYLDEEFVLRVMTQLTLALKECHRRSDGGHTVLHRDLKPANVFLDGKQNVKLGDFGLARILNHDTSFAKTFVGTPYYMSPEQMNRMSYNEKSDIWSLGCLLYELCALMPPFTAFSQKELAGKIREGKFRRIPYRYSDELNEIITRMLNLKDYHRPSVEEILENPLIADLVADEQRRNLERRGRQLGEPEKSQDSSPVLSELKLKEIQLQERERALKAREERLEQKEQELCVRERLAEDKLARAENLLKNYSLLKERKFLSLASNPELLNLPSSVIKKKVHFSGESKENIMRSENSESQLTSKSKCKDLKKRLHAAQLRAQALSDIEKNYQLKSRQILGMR
Value type: ΔTm (°C)

Cc1ccc(NC(=O)c2ccc(CN3CCN(C)CC3)cc2)cc1Nc1nccc(-c2cccnc2)n1
-0.8
O=C1Nc2ccccc2/C1=C/c1cnc[nH]1
2
Cn1cc(/C=C2/C(=O)Nc3ccc(S(N)(=O)=O)cc32)c2ccccc21
0.9
O=C1Nc2cc(Br)ccc2/C1=C1/Nc2ccccc2/C1=N\O
0.7
COC1=C2C[C@@H](C)C[C@H](OC)[C@H](O)[C@@H](C)/C=C(\C)[C@H](OC(N)=O)[C@@H](OC)/C=C\C=C(/C)C(=O)NC(=CC1=O)C2=O
0.5
CN[C@@H]1CC2O[C@@](C)([C@@H]1OC)n1c3ccccc3c3c4c(c5c6ccccc6n2c5c31)C(=O)NC4
2.8
O=C1NC(=O)c2c1c1c3ccccc3n3c1c1c2c2ccccc2n1C1CCC3O1
0.3
CCOC(=O)c1cnc2oc3ccc(O)cc3c2c1-c1ccccc1
0.9
Cc1ccc(NC2=CC(=O)c3sc(C)nc3C2=O)cc1
-1.2
Nc1cc2ncnc(Nc3cccc(Br)c3)c2cc1N
3.3
COc1cc2ncnc(Nc3cccc(Br)c3)c2cc1OC
0.6
CCN(CC)CCNC(=O)c1c(C)[nH]c(/C=C2\C(=O)Nc3ccc(F)cc32)c1C
-0.4
C[S+]([O-])c1ccc(-c2nc(-c3ccc(F)cc3)c(-c3ccncc3)[nH]2)cc1 (stereo unspecified) [SB-203580]
0.3
COc1ccc(COc2ccc(Cc3cnc(N)nc3N)cc2OC)cc1
-0.1
COc1ccc(CNc2nc(N(CCO)CCO)nc3c2ncn3C(C)C)cc1
1
NC(=O)c1ccc2[nH]c(-c3ccc(Oc4ccc(Cl)cc4)cc3)nc2c1
1.4
CC(C)(C)c1cc(C=C2C(=O)C=CC2=O)cc(C(C)(C)C)c1O
1.1
Cn1cnc2c(NCc3ccccc3)nc(NCCO)nc21 [OLOMOUCINE]
1.1
O=C1C(Cl)=C(N2C(=O)CCC2=O)C(=O)c2ccccc21
2.5
CN(c1cccnc1)c1cc2c(Nc3ccc(F)c(Cl)c3)c(C#N)cnc2cn1
0.7
Nc1nccc(-c2c(-c3ccc(F)cc3)ncn2C2CCNCC2)n1
1.1
COc1ccc(CNC(=O)Nc2ncc([N+](=O)[O-])s2)cc1
0.6
N#CCCc1ccc2c(c1)-c1[nH]c3ccc([N+](=O)[O-])cc3c1CC(=O)N2 [ALSTERPAULLONE 2]
2.2
CCOc1cc(/C=C(\C#N)C(N)=O)cc(CSc2ccccc2)c1O
0.3
CC(C)c1nn(-c2c(Cl)cccc2Cl)c2nc(Cc3ccc(OCCO)cc3)[nH]c(=O)c12
1.5
NCCNc1ncc(C(N)=O)c(Nc2cccc(C(F)(F)F)c2)n1
0.2
CCOc1ccc(/C=C2/SC(=O)N(CCN)C2=O)cc1 [HIAZOLIDINEDIONE1]
0.8
CCN(CC)CCNC(=O)c1c(C)[nH]c(/C=C2\C(=O)Nc3ccc(Cl)cc32)c1C [SU-11652]
5.1
CC(C)(C)c1nc2c3ccc(F)cc3c3c(=O)[nH]ccc3c2[nH]1
0.7
COc1ccc2c(c[n+](C)c3c4cc5c(cc4ccc23)OCO5)c1OC [CHELERYTHRINE CHLORIDE]
-1.2
O=c1c2ccccc2[nH]c(=S)n1CCN1CCC(=C(c2ccc(F)cc2)c2ccc(F)cc2)CC1 [DIACYLGLYCEROL KINASE INHIBITOR II]
1.5
CC(C)n1cnc2c(NCc3ccccc3)nc(NCCCO)nc21
0.9
Oc1cccc(-c2nc(N3CCOCC3)c3oc4ncccc4c3n2)c1
0.5
NS(=O)(=O)c1ccc(Nc2nc(OCC3CCCCC3)c3nc[nH]c3n2)cc1
4.9
CN(C)S(=O)(=O)c1ccc2c(c1)/C(=C/c1cc3c([nH]1)CCCC3)C(=O)N2
2.8
O=c1sn(Cc2ccccc2)c(=S)n1Cc1ccccc1
1.5
O=c1c(-c2ccc(O)cc2)coc2cc(O)cc(O)c12
-0.1
CCCNC(=O)Nc1ccc(Oc2ncnc3cc(OC)c(OC)cc23)cc1Cl [KRN-633]
-0.3
C[C@@H](N)[C@H]1CC[C@H](C(=O)Nc2ccncc2)CC1
-0.1
O=c1ccc2ccc(O)c(O)c2o1 [DAPHNETIN]
0.7
Clc1ccc(Nc2nnc(Cc3ccncc3)c3ccccc23)cc1
0.6

----------
As shown below, each of these molecules has a reported ΔTm value.
- Experimental target: Serine/threonine-protein kinase 26 (Homo sapiens) (UniProt Q9P289)
- Sequence (Q9P289 2-416 limits assumed): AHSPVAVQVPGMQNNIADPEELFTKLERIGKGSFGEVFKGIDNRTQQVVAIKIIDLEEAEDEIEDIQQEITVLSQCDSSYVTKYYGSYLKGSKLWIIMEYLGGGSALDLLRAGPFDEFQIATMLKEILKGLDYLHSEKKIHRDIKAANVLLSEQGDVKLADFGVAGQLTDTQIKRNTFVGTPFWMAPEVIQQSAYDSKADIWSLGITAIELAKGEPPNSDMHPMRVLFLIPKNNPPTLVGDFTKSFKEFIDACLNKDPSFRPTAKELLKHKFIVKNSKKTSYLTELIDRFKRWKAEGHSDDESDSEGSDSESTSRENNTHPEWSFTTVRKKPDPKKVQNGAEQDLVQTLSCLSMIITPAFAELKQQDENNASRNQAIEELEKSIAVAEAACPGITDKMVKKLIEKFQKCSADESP
Value type: ΔTm (°C)

O=c1cc(-c2ccc(O)cc2)oc2cc(O)cc(O)c12
2.1
c1ccc(-c2n[nH]c3c2oc2ccccc23)cc1
3.4
CN(C)CCCn1cc(C2=C(c3c[nH]c4ccccc34)C(=O)NC2=O)c2ccccc21
1.7
O=c1sn(Cc2ccccc2)c(=S)n1Cc1ccccc1
0.5
CCN(CC)CCNC(=O)c1c(C)[nH]c(/C=C2\C(=O)Nc3ccc(Cl)cc32)c1C
5.8
Cc1cc(Nc2nc(-c3ccccc3)nc3ccccc23)n[nH]1
9.5
CC(C)n1cnc2c(NCc3ccccc3)nc(NCCCO)nc21
0.1
Cc1ccc(NC(=O)c2cccc(N(C)C)c2)cc1NC(=O)c1ccc(O)cc1
1
O=c1c(-c2ccc(F)cc2)c(-c2ccncc2)[nH]n1-c1ccc(Cl)cc1
0.6
NC1=N/C(=C2/CCNC(=O)c3[nH]ccc32)C(=O)N1
0.7
Nc1cccc(-c2cc3c(Oc4cccc(O)c4)ncnc3[nH]2)c1
2.2
CCN(CC)CCNC(=O)c1c(C)[nH]c(/C=C2\C(=O)Nc3ccc(F)cc32)c1C
-0.1
CCOC(=O)c1c(C)[nH]c(/C=C2\C(=O)Nc3ccccc32)c1C
-0.7
Cc1cc(C=C2C(=O)C=CC2=O)cc(C)c1O
-0.1
O=C(Nc1cccc(Nc2nccc(Nc3cccc(C(F)(F)F)c3)n2)c1)C1CC1
0.7
O=C(Nc1cccc(Nc2cc(Nc3cccc(C(F)(F)F)c3)ncn2)c1)C1CC1
0.8
Cc1nc(N)sc1-c1ccnc(Nc2cccc([N+](=O)[O-])c2)n1
0.4
C=CNC#N
1.5
O=Nc1c(-c2c(O)[nH]c3ccccc23)[nH]c2ccccc12
2.7
NC1=NC(=O)/C(=C2\CCNC(=O)c3[nH]c(Br)cc32)N1
1.8
C#Cc1cccc(Nc2ncnc3cc(OCCOC)c(OCCOC)cc23)c1
0.6
Oc1cccc(-c2nc(N3CCOCC3)c3oc4ncccc4c3n2)c1
0.9

----------
- Experimental target: Serine/threonine-protein kinase Nek6 (Homo sapiens) (UniProt Q9HC98)
- Sequence (Q9HC98 whole entry): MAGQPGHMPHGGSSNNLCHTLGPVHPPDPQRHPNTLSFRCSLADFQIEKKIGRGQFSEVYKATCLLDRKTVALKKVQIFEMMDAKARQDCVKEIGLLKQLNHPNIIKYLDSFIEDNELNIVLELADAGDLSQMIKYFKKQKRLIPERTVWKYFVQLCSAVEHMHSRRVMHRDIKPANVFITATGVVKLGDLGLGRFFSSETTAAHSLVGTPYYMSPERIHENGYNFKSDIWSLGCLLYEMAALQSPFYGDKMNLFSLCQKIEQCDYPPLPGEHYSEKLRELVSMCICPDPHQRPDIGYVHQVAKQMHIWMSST
Decide using ΔTm alone. Strictly below 0 °C: True. Equal to or above 0 °C: False.

O=C1NC(=O)c2c1c1c3ccccc3[nH]c1n1cncc21 [ISOGRANULATIMIDE]
False
COc1cc2c(cc1OC)-c1n[nH]c(Nc3cccc(F)c3)c1C2
False
O=S(=O)(NCCNC/C=C/c1ccc(Br)cc1)c1cccc2cnccc12
True
Oc1ccc(-c2nc(-c3ccc(F)cc3)c(-c3ccncc3)[nH]2)cc1
False
Cn1cc(C2=C(c3cn(CCCSC(=N)N)c4ccccc34)C(=O)NC2=O)c2ccccc21
True
O=C1C=C2C(=Nc3c2c2c(c4c3=NC3=C4CCC=C3)C=NC=2)CC1
False
Nc1nc(Nc2ccc(S(N)(=O)=O)cc2)nn1C(=S)Nc1c(F)cccc1F
False
Cc1cc(Nc2nc(-c3ccccc3)nc3ccccc23)n[nH]1
False
CC(C)c1nn(-c2c(Cl)cccc2Cl)c2nc(Cc3ccc(OCCO)cc3)[nH]c(=O)c12
False
O=c1ccc2ccc(O)c(O)c2o1
True
Cc1ccc(NC(=O)c2cccc(N(C)C)c2)cc1NC(=O)c1ccc(O)cc1
False
COc1ccc(CNc2nc(N(CCO)CCO)nc3c2ncn3C(C)C)cc1
False
O=C(O)Cc1ccc(O)c([N+](=O)[O-])c1
False
O=c1cc(N2CCOCC2)oc2c1ccc1ccccc12
True
COc1cc(C[C@H]2C(=O)OC[C@@H]2Cc2ccc(OC)c(OC)c2)ccc1O
True
COc1ccc(S(=O)(=O)N(CCO)c2ccccc2CN(C)C/C=C/c2ccc(Cl)cc2)cc1
False
N#C/C(=C(/N)Sc1ccc(N)cc1)c1ccccc1C(F)(F)F
True
C[C@@H]1C[C@H]2O[C@@H]2/C=C\C=C\C(=O)Cc2c(Cl)c(O)cc(O)c2C(=O)O1
True
Cn1cc(/C=C2/C(=O)Nc3ccc(S(N)(=O)=O)cc32)c2ccccc21
False
O=c1sn(Cc2ccccc2)c(=S)n1Cc1ccccc1
False
COc1ccc2c(c1)/C(=C/c1cnc[nH]1)C(=O)N2
False
Brc1c(Br)c(Br)c2[nH]nnc2c1Br
False
O=c1c2ccccc2[nH]c(=S)n1CCN1CCC(=C(c2ccc(F)cc2)c2ccc(F)cc2)CC1
False
COc1cc2ncnc(Nc3ccc(F)c(Cl)c3)c2cc1OCCCN1CCOCC1
True
CN(C)C[C@@H]1CCn2cc(c3ccccc32)C2=C(C(=O)NC2=O)c2cn(c3ccccc23)CCO1
True
N#CC(C#N)=Cc1ccc(O)c(O)c1
False
Cc1[nH]c(/C=C2\C(=O)Nc3ccc(S(=O)(=O)N(C)c4cccc(Cl)c4)cc32)c(C)c1C(=O)N1CCN(C)CC1
False
CCOC(=O)c1c(C)[nH]c(/C=C2\C(=O)Nc3ccccc32)c1C
False
C[S+]([O-])c1ccc(-c2nc(-c3ccc(F)cc3)c(-c3ccncc3)[nH]2)cc1 (stereo not given)
False
COc1ccc(COc2ccc(Cc3cnc(N)nc3N)cc2OC)cc1
True
N#C/C(=C\c1ccc(O)c(O)c1)C(=O)NCc1ccccc1
False
Nc1n[nH]c2nc3ccccc3nc12
True
O=C(O)c1cc(N(Cc2ccccc2O)Cc2cc(O)ccc2O)ccc1O
False
CC(C)c1cc(/C=C(\C#N)C(=O)NCCCc2ccccc2)cc(C(C)C)c1O
False
Cc1cc(C=C2C(=O)C=CC2=O)cc(C)c1O
True
CN(C)S(=O)(=O)c1ccc2c(c1)/C(=C/c1cc3c([nH]1)CCCC3)C(=O)N2
False
C[S+]([O-])c1ccc(CSc2nc(-c3ccc(F)cc3)c(-c3ccncc3)[nH]2)cc1 (stereo not given)
True
C#Cc1cccc(Nc2ncnc3cc(OCCOC)c(OCCOC)cc23)c1
True
